Cited source for all entries: patent US11225505B2

Reported Minimum inhibitory concentration values for a set of molecules
System: Klebsiella pneumoniae Kp BM1
Assay type: cell-based
test.parameters: Kp BM1
Where a SMILES comes first, the peptide text is derived from it. Bridges are numbered along the chain shown (N, C = ends). [ ]: non-standard residue; d: D form. The star is where a group is joined. X44 = O=C(c1cc(-c2ccccc2)no1)*; X22 = Cn1c(C(=O)*)cc2ccccc21; X23 = O=C(c1cc2ccccc2[nH]1)*; X50 = O=C(c1sc(Br)cc1Br)*; X12 = CCc1ccc(C(=O)*)nc1; Dab = NCC[C@H](N)C(=O)O; Abu = CC[C@H](N)C(=O)O; Dap = NC[C@H](N)C(=O)O
# value in µg/mL; strip the unit string

Solved cases below.
| molecule | endpoint | unit.symbol | recorded.number |
| --- | --- | --- | --- |
| CC(C)C[C@H]1NC(=O)[C@H](CCN)NC(=O)[C@@H](NC(=O)[C@H](CN)NC(=O)[C@@H](NC(=O)[C@H](CCN)NC(=O)c2sc(Br)cc2Br)[C@@H](C)O)CCNC(=O)[C@H]([C@@H](C)O)NC(=O)[C@H](CCN)NC(=O)[C@H](CCN)NC(=O)[C@H](C)NC1=O [Compound 99] (X50-[Dab]T[Dap][Dab][Dab][dL]A[Dab][Dab]T; lactam 4-C) | Minimum inhibitory concentration | µg/mL | 0.25 |
| CC(C)C[C@H]1NC(=O)[C@H](CCN)NC(=O)[C@@H](NC(=O)[C@H](CN)NC(=O)[C@@H](NC(=O)[C@H](CCN)NC(=O)c2cc3ccccc3n2C)[C@@H](C)O)CCNC(=O)[C@H]([C@@H](C)O)NC(=O)[C@H](CCN)NC(=O)[C@H](CCN)NC(=O)[C@H](C)NC1=O [Compound 65] (X22-[Dab]T[Dap][Dab][Dab][dL]A[Dab][Dab]T; lactam 4-C) | Minimum inhibitory concentration | µg/mL | 0.25 |

Requested field: Minimum inhibitory concentration. Item: CC(C)C[C@H]1NC(=O)[C@H](CCN)NC(=O)[C@@H](NC(=O)[C@H](CN)NC(=O)[C@@H](NC(=O)[C@H](CCN)NC(=O)c2cc3ccccc3[nH]2)[C@@H](C)O)CCNC(=O)[C@H]([C@@H](C)O)NC(=O)[C@H](CCN)NC(=O)[C@H](CCN)NC(=O)[C@H](C)NC1=O [Compound 67] (X23-[Dab]T[Dap][Dab][Dab][dL]A[Dab][Dab]T; lactam 4-C)
0.5

Requested field: Minimum inhibitory concentration. Item: CCc1ccc(C(=O)N[C@@H](CCN)C(=O)N[C@H](C(=O)N[C@@H](CN)C(=O)N[C@H]2CCNC(=O)[C@H]([C@@H](C)O)NC(=O)[C@H](CCN)NC(=O)[C@H](CCN)NC(=O)[C@H](CC)NC(=O)[C@@H](CC(C)C)NC(=O)[C@H](CCN)NC2=O)[C@@H](C)O)nc1 [Compound 42] (X12-[Dab]T[Dap][Dab][Dab][dL][Abu][Dab][Dab]T; lactam 4-C)
0.25

Requested field: Minimum inhibitory concentration. Item: CC[C@@H]1NC(=O)[C@@H](CC(C)C)NC(=O)[C@H](CCN)NC(=O)[C@@H](NC(=O)[C@H](CN)NC(=O)[C@@H](NC(=O)[C@H](CCN)NC(=O)c2cc(-c3ccccc3)no2)[C@@H](C)O)CCNC(=O)[C@H]([C@@H](C)O)NC(=O)[C@H](CCN)NC(=O)[C@H](CCN)NC1=O [Compound 87] (X44-[Dab]T[Dap][Dab][Dab][dL][Abu][Dab][Dab]T; lactam 4-C)
0.5
